- subject-of-test: T1, human GPVI on platelets (human, UniProt Q9HCN6 21-339)
- T1 sequence (looked up): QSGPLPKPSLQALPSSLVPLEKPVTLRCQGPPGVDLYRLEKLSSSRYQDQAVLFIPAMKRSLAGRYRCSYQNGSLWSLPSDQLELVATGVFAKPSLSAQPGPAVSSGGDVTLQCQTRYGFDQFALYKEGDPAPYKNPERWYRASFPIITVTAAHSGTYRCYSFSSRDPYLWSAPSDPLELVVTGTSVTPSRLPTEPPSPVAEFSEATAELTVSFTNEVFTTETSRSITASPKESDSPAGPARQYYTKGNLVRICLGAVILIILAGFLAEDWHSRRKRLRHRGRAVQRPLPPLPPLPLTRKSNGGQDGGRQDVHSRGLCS
- protocol: cell-based or functional assay
readout-label: IC50 for inhibition of collagen induced platelet aggregation (human PRP), Test 3
State the value with its unit after it.

Exam item: I would be grateful if you could share the reported IC50 for inhibition of collagen induced platelet aggregation (human PRP), Test 3 for humanized anti-GPVI Fab VL1/VH5 (Fab, V domains shown, Recombinant Fab: VH fused to CH1 of human IGHG1 (Q569F4), HC ends in DKTHT; VL fused to human constant kappa (Q502W4); also called VL1 with VH5) VH: QVQLQESGPGLVAPSQSLSITCTVSGFSLTGYGVNWVRQPPSRGLEWLGMIWGDGSTDYQSTLKSRLSISKDNSKSQVFLKMNSLTTDDTARYYCARDLPMDEWGQGTSVTVSS VL: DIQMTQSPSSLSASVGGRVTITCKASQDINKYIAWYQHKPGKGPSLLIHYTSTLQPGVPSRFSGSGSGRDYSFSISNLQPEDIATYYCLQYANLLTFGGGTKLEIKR .
Marked response: 1.2 µg/mL

Origin of values: patent US20150098939A1
